# Tested on: Staphylococcus aureus
# assay-comment: Antimicrobial activity against Staphylococcus aureus ATCC 25923 at 1 mg/ml incubated for 24 hrs by cup diffusion assay
# Assay type: functional
# condition-description: ATCC 25923, 24 h, read-out: DIZ
Rule: label 1 for zone of inhibition at 1000 µg/mL not less than 20 mm, label 0 for anything less.

The examples below pair each entry with its known result.
compound | discrete-label
Cc1nc(Cl)c2[nH]nc(-c3ccc(Cl)cc3)c2n1 | label 0
Cc1cc(C)n(C(=O)c2[nH]nc(-c3ccc(Cl)cc3)c2N)n1 | label 1
CO/N=C(\C(=O)N[C@@H]1C(=O)N2C(C(=O)O)=C(COC(C)=O)CS[C@H]12)c1csc(N)n1 [CEFOTAXIME] | label 1
Cc1csc(NNC(=O)c2[nH]nc(-c3ccc(Cl)cc3)c2N)n1 | label 1
Cc1nc2c(-c3ccc(Cl)cc3)n[nH]c2c2nnnn12 | label 0

Lookup: Exam item: decide whether the reported zone of inhibition at 1000 µg/mL for NC(=S)NNC(=O)c1[nH]nc(-c2ccc(Cl)cc2)c1N is at least 20 mm.
Found: label 1

Lookup: Given the entry Cc1nn(C(=O)c2[nH]nc(-c3ccc(Cl)cc3)c2N)c(C)c1Cl , answer whether its zone of inhibition at 1000 µg/mL meets or surpasses 20 mm.
Found: label 0

Lookup: Check this compound for zone of inhibition at 1000 µg/mL at or above 20 mm: CC1=NN(C(=O)c2[nH]nc(-c3ccc(Cl)cc3)c2N)C(=O)C1
Found: label 1
